Data provenance: ChEMBL document CHEMBL1137558

assay-info: Anticancer activity against human NCI60 cells
Format: functional

smiles-str: O=C(c1cccs1)c1c(C(F)(F)F)[n+]([O-])c2cc(Cl)c(Cl)cc2[n+]1[O-]
TGI: 3.02 µM
//
smiles-str: O=C(c1ccco1)c1c(C(F)(F)F)[n+]([O-])c2cc(Cl)c(Cl)cc2[n+]1[O-]
TGI: 3.09 µM
//
smiles-str: O=C(c1ccccc1)c1c(C(F)(F)F)[n+]([O-])c2cc(C(F)(F)F)ccc2[n+]1[O-]
TGI: 2.95 µM

----------
assay-info: Anticancer activity against renal cancer cells
Type: functional
condition: Homo sapiens, Cancer cell lines

smiles-str: COc1ccc2c(c1)[n+]([O-])c(C(=O)c1cccs1)c(C(F)(F)F)[n+]2[O-]
GI50 (nM): 5110
--
smiles-str: O=C(c1ccccc1)c1c(C(F)(F)F)[n+]([O-])c2ccc(F)cc2[n+]1[O-]
GI50 (nM): 1140
--
smiles-str: O=C(c1ccc2ccccc2c1)c1c(C(F)(F)F)[n+]([O-])c2ccc(F)cc2[n+]1[O-]
GI50 (nM): 1480
--
smiles-str: COc1ccc2c(c1)[n+]([O-])c(C(=O)c1ccco1)c(C(F)(F)F)[n+]2[O-]
GI50 (nM): 1740
--
smiles-str: O=C(c1ccco1)c1c(C(F)(F)F)[n+]([O-])c2cc(F)c(F)cc2[n+]1[O-]
GI50 (nM): 360
--
smiles-str: O=C(c1cccs1)c1c(C(F)(F)F)[n+]([O-])c2cc(F)c(F)cc2[n+]1[O-]
GI50 (nM): 500
--
smiles-str: O=C(c1ccc2ccccc2c1)c1c(C(F)(F)F)[n+]([O-])c2cc(F)c(F)cc2[n+]1[O-]
GI50 (nM): 2180
--
smiles-str: O=C(c1cccs1)c1c(C(F)(F)F)[n+]([O-])c2cc(Cl)c(Cl)cc2[n+]1[O-]
GI50 (nM): 1600
--
smiles-str: Cc1cc2c(cc1C)[n+]([O-])c(C(F)(F)F)c(C(=O)c1cccs1)[n+]2[O-]
GI50 (nM): 4620
--
smiles-str: O=C(c1ccc2ccccc2c1)c1c(C(F)(F)F)[n+]([O-])c2ccc(Cl)cc2[n+]1[O-]
GI50 (nM): 1380
--
smiles-str: Cc1ccc2c(c1)[n+]([O-])c(C(=O)c1cccs1)c(C(F)(F)F)[n+]2[O-]
GI50 (nM): 250
--
smiles-str: O=C(c1ccc2ccccc2c1)c1c(C(F)(F)F)[n+]([O-])c2cc(C(F)(F)F)ccc2[n+]1[O-]
GI50 (nM): 1550
--
smiles-str: O=C(c1ccccc1)c1c(C(F)(F)F)[n+]([O-])c2cc(C(F)(F)F)ccc2[n+]1[O-]
GI50 (nM): 1470
--
smiles-str: O=C(c1ccc2ccccc2c1)c1c(C(F)(F)F)[n+]([O-])c2cc(Cl)c(Cl)cc2[n+]1[O-]
GI50 (nM): 1640
--
smiles-str: O=C(c1ccco1)c1nc2cc(C(F)(F)F)ccc2[n+]([O-])c1C(F)(F)F
GI50 (nM): 60600
--
smiles-str: O=C(c1ccco1)c1c(C(F)(F)F)nc2ccc(C(F)(F)F)cc2[n+]1[O-]
GI50 (nM): 28600
--
smiles-str: O=C(c1ccco1)c1c(C(F)(F)F)[n+]([O-])c2ccc(C(F)(F)F)cc2[n+]1[O-]
GI50 (nM): 430
